Tested on: methionyl-tRNA synthetase (Trypanosoma brucei brucei)
test-summary: T. brucei MetRS aminoacylation inhibitors, late-stage follow-up, counter-screen for T. brucei MetRS inhibitor project, biochemical, radioactivity, assay provider (AID 720623)
stated-conditions: Recombinant T. brucei MetRS enzyme, [3H]methionine tRNA aminoacylation, filter scintillation, 120 min; at 10 µM; stronger effect = higher value
observed-property: inhibition (%)

{"columns": ["compound", "unit-of-measure", "inhibition"],
 "data": [
  ["Clc1ccc(OCCSCc2nc3ccccc3[nH]2)cc1", "%", 44.8],
  ["O=C(NCc1nc2ccccc2[nH]1)C1=C[C@@H](c2ccc(Br)cc2)C[C@@H](OCCCCO)O1", "%", 99.9],
  ["O=C(CC(=O)Nc1cccc(Cl)c1)NN=Cc1ccccc1", "%", 81.1]
]}

P. O=C(NCc1nc2ccccc2[nH]1)C1=C[C@@H](c2ccc(Br)cc2)C[C@@H](OCc2ccc(CO)cc2)O1
Q. O=C1CC(SCc2nc3ccccc3[nH]2)C(=O)N1c1cccc(Cl)c1 (stereo not given)
Please indicate which entry, P or Q , has the lower recorded inhibition value. Lab log: write the label of the selected item as the result.
Q
(Q: 52.6%, P: 97.6%)

Every entry's value here was drawn from PubChem BioAssay AID720623.
